- test.summary: self-splicing fitness, log relative to wild type (ln ratio); higher = more splicing; Tetrahymena group I intron in knt gene, E. coli kanamycin selection, DiMSum; sequences stand for … in CUCUCU…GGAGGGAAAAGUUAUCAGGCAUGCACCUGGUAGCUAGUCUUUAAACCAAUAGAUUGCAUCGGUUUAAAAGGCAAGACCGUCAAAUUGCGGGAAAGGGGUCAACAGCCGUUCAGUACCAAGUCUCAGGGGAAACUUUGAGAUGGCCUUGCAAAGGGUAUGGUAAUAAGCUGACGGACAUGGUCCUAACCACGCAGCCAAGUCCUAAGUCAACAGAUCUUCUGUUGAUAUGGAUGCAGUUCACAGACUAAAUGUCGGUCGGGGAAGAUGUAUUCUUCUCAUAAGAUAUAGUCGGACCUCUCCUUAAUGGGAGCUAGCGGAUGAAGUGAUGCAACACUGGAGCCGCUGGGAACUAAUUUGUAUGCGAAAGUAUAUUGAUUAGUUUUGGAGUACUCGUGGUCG;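 also: selection with 25 µg/mL kanamycin versus none on LB agar overnight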
- stated.conditions: 30 °C
Would you mind classing the entries by self-splicing fitness (ln)? Ranges: low bracket (below -3), middle bracket (-3 to below -1), high bracket (-1 or more)

sequence.text | class.name
UAACAGCAAUAUUACGGUUA | middle bracket
GGACAGCAAUAUUACGACAC | high bracket
UGCGAGCAAUAUUACGGGGU | middle bracket
CCGCAGCAAUAUUACGCCUU | low bracket
UCGCAGCAAUAUUACGUUUG | middle bracket
UGCGAGCAAUAUUACGGCAG | middle bracket

Which band does `AACCAGCAAUAUUACGUGCU` fall in? low bracket

Any idea which band `CUAAAGCAAUAUUACGAAGU` is in? low bracket

Form: Item = `GGAAAGCAAUAUUACGGAAC` ; Class = ? low bracket

Hi there! Could you help me figure out the category for `ACAGAGCAAUAUUACGUGCU` please? low bracket

# classify by self-splicing fitness (ln) band: `GUACAGCAAUAUUACGCUCG` high bracket

Quick check: band for `AAUGAGCAAUAUUACGGCUA` middle bracket

Assign a bin to `AGUUAGCAAUAUUACGGAUA` middle bracket

Pick a category. Item: `UGGCAGCAAUAUUACGGCUU` high bracket

Place this sequence in its band: `UCAGAGCAAUAUUACGUAGA` high bracket

Each sequence maps to one class by self-splicing fitness (ln). Which class for `GUUAAGCAAUAUUACGGGUC` ? middle bracket

Values compiled from the supplement of paper PMC7877785.
